# targetUnderTest: MMP-9 (Homo sapiens)
# Construct: made in house; host or cells: MMP-9-transfected HT1080 cells (spent media)
# Sequence (P14780 107-707 limits assumed): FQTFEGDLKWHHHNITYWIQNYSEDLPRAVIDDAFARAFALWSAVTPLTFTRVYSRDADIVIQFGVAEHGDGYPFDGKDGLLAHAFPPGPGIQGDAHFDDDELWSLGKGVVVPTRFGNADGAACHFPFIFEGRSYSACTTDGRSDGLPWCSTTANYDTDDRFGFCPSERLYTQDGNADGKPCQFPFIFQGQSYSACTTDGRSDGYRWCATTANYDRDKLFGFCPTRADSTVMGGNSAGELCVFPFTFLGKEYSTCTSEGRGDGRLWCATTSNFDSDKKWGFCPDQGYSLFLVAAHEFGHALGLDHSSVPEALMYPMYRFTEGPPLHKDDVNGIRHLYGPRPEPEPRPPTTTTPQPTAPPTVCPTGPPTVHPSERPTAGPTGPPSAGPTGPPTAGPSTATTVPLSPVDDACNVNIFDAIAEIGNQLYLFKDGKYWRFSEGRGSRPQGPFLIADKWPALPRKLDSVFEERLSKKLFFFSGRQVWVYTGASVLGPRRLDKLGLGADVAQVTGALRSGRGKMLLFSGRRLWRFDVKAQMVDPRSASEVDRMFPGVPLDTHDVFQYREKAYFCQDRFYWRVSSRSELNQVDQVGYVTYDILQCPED
# testProtocol: In vitro MMP inhibition, Ki determination (fluorogenic substrate II)
# Type: biochemical
# measurementConditions: value outside parentheses
measure: Ki (nM)

O=C(NO)C1(S(=O)(=O)N2CCN(c3ccc(OCC(F)(F)C(F)F)cc3)CC2)CCOCC1 [Example 336] | 1.38

1 = CCCCOc1ccc(N2CCN(S(=O)(=O)C3(C(=O)NO)CCN(c4ccc(Cl)nn4)CC3)CC2)cc1 [Example 281]
2 = O=C(NO)C1(S(=O)(=O)N2CCC(COCC(F)(F)C(F)(F)F)CC2)CCOCC1 [Example 376]
3 = Cc1ccc(-c2cnc(N3CCN(S(=O)(=O)C4(C(=O)NO)CCOCC4)CC3)s2)cc1 [Example 344]
4 = CCCCOc1ccc(N2CCN(S(=O)(=O)C3(C(=O)NO)CCN(c4ccccc4)CC3)CC2)cc1 [Example 264]
Sort (4 molecules) by Ki: min first. State the ranking by listing the labels in the requested order.
3, 1, 4, 2
(3: 0.492 nM, 1: 2.16 nM, 4: 20.4 nM, 2: 114 nM)

A = CCCCCC/C=C\C1CCN(S(=O)(=O)C2(C(=O)NO)CCOCC2)CC1 [Example 401]
B = CCc1ccc(N2CCN(S(=O)(=O)C3(C(=O)NO)CCCCC3)CC2)nc1 [Example 263]
Task for the reader: decide whether A or B has the larger Ki. To answer, give the label that identifies your chosen option.
A
(A: 4.22 nM, B: 0.634 nM)

1 = COCCOc1ccc(N2CCN(S(=O)(=O)C3(C(=O)NO)CCN(C4CC4)CC3)CC2)cc1F [Example 297]
2 = CCCCOc1ccc(N2CCN(S(=O)(=O)C3(C(=O)NO)CCN(CCOC)CC3)CC2)nc1 [Example 325]
3 = CCCCOc1ccc(C2CCN(S(=O)(=O)C3(C(=O)NO)CCOCC3)CC2)nc1 [Example 410]
4 = CCCCOc1ccc(N2CCN(S(=O)(=O)C3(C(=O)NO)CCN(C(=O)C(C)(C)C)CC3)CC2)cc1 [Example 267]
5 = O=C(NO)C1(S(=O)(=O)N2CCN(c3ccc(CCCC(F)(F)F)c(F)c3)CC2)CCOCC1 [Example 389]
Arrange by Ki, high to low. The response must list the labels following the requested ordering.
1, 4, 5, 3, 2
(1: 19.5 nM, 4: 2.54 nM, 5: 1.34 nM, 3: 0.55 nM, 2: 0.32 nM)

P = O=C(NO)C1(S(=O)(=O)N2CCC(c3ccc(OCCC(F)(F)F)cn3)CC2)CCOCC1 [Example 418]
Q = O=C(NO)C1(S(=O)(=O)N2CCN(c3ncc(-c4ccc(OC(F)(F)F)cc4)s3)CC2)CCOCC1 [Example 364]
R = CC(C)(C)c1ccc(-c2cnc(N3CCN(S(=O)(=O)C4(C(=O)NO)CCOCC4)CC3)s2)cc1 [Example 347]
S = Cc1cc(N2CCN(S(=O)(=O)C3(C(=O)NO)CCOCC3)CC2)ccc1OC(C)C [Example 299]
Reorder: Ki, max to min. Answer with the labels in sequence, matching the requested order.
S, R, P, Q

src = patent US20050209278A1
